Target: Human Factor B (human) (UniProt P00751)
Sequence (P00751 26-764 limits assumed): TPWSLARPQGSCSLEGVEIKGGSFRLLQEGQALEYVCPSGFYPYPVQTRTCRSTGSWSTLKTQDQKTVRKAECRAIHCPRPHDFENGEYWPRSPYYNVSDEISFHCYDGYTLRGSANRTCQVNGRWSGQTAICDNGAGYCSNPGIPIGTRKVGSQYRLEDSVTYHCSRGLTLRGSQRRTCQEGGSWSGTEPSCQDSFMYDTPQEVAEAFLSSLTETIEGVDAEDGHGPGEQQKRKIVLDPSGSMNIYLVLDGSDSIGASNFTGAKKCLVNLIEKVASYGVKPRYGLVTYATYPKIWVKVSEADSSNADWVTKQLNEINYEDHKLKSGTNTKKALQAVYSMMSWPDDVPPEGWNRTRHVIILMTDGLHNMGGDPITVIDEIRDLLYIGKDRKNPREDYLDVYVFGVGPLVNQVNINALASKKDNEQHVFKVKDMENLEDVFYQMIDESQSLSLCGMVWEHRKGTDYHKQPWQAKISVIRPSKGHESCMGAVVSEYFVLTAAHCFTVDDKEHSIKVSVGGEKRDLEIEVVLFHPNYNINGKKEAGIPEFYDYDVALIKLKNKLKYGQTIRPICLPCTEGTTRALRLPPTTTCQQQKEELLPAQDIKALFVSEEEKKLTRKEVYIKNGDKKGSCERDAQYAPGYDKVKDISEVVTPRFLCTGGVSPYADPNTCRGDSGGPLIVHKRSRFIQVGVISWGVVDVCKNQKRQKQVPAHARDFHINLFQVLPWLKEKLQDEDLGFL
Assay: cell-based or functional assay
Each record's class is read off its fB Cleavage, 80% plasma EC50 using these ranges: lower segment (below 5 µM), middle segment (5 µM to below 9 µM), upper segment (9 µM or more)

Would you please look over these solved cases?
{"BINDER": "chymase C22S/L99R/F173L/K192R/Y215H/R217T/S218V/A226R (enzyme) IIGGTESKPHSRPYMAYLEIVTSNGPSKFCGGFLIRRNFVLTAAHCAGRSITVTLGAHNITEEEDTWQKLEVIKQFRHPKYNTSTRHHDIMLLKLKEKASLTLAVGTLPFPSQFNFVPPGRMCRVAGWGRTGVLKPGSDTLQEVKLRLMDPQACSHLRDFDHNLQLCVGNPRKTKSAFRGDSGGPLLCAGVAQGIVSHGTVDAKPPRVFTRISHYRPWINQILQAN", "GROUP LABEL": "middle segment"}
{"BINDER": "chymase C22S/F173Y/A226R (enzyme) IIGGTESKPHSRPYMAYLEIVTSNGPSKFCGGFLIRRNFVLTAAHCAGRSITVTLGAHNITEEEDTWQKLEVIKQFRHPKYNTSTLHHDIMLLKLKEKASLTLAVGTLPFPSQFNFVPPGRMCRVAGWGRTGVLKPGSDTLQEVKLRLMDPQACSHYRDFDHNLQLCVGNPRKTKSAFKGDSGGPLLCAGVAQGIVSYGRSDAKPPRVFTRISHYRPWINQILQAN", "GROUP LABEL": "upper segment"}
{"BINDER": "chymase C22S/K40L/F41R/L99G/F173Y/D175R/S218V/A226R (enzyme) IIGGTESKPHSRPYMAYLEIVTSNGPSLRCGGFLIRRNFVLTAAHCAGRSITVTLGAHNITEEEDTWQKLEVIKQFRHPKYNTSTGHHDIMLLKLKEKASLTLAVGTLPFPSQFNFVPPGRMCRVAGWGRTGVLKPGSDTLQEVKLRLMDPQACSHYRRFDHNLQLCVGNPRKTKSAFKGDSGGPLLCAGVAQGIVSYGRVDAKPPRVFTRISHYRPWINQILQAN", "GROUP LABEL": "middle segment"}

Req: Lab log: chymase C22S/F41K/L99H/G151A/F173Y/Y215K/R217S/A226R (enzyme) IIGGTESKPHSRPYMAYLEIVTSNGPSKKCGGFLIRRNFVLTAAHCAGRSITVTLGAHNITEEEDTWQKLEVIKQFRHPKYNTSTHHHDIMLLKLKEKASLTLAVGTLPFPSQFNFVPPGRMCRVAGWGRTGVLKPASDTLQEVKLRLMDPQACSHYRDFDHNLQLCVGNPRKTKSAFKGDSGGPLLCAGVAQGIVSKGSSDAKPPRVFTRISHYRPWINQILQAN — assign fB Cleavage, 80% plasma EC50 category
Resp: upper segment

Req: Lab log: chymase C22S/K40M/F41K/F173Y/D175R/S218E/A226R (enzyme) IIGGTESKPHSRPYMAYLEIVTSNGPSMKCGGFLIRRNFVLTAAHCAGRSITVTLGAHNITEEEDTWQKLEVIKQFRHPKYNTSTLHHDIMLLKLKEKASLTLAVGTLPFPSQFNFVPPGRMCRVAGWGRTGVLKPGSDTLQEVKLRLMDPQACSHYRRFDHNLQLCVGNPRKTKSAFKGDSGGPLLCAGVAQGIVSYGREDAKPPRVFTRISHYRPWINQILQAN — assign fB Cleavage, 80% plasma EC50 category
Resp: lower segment

Req: Lab log: chymase C22S/D175N/A226R (enzyme) IIGGTESKPHSRPYMAYLEIVTSNGPSKFCGGFLIRRNFVLTAAHCAGRSITVTLGAHNITEEEDTWQKLEVIKQFRHPKYNTSTLHHDIMLLKLKEKASLTLAVGTLPFPSQFNFVPPGRMCRVAGWGRTGVLKPGSDTLQEVKLRLMDPQACSHFRNFDHNLQLCVGNPRKTKSAFKGDSGGPLLCAGVAQGIVSYGRSDAKPPRVFTRISHYRPWINQILQAN — assign fB Cleavage, 80% plasma EC50 category
Resp: middle segment

Req: Lab log: chymase C22S/K40L/F41R/L99H/F173Y/D175Y/S218I/A226R (enzyme) IIGGTESKPHSRPYMAYLEIVTSNGPSLRCGGFLIRRNFVLTAAHCAGRSITVTLGAHNITEEEDTWQKLEVIKQFRHPKYNTSTHHHDIMLLKLKEKASLTLAVGTLPFPSQFNFVPPGRMCRVAGWGRTGVLKPGSDTLQEVKLRLMDPQACSHYRYFDHNLQLCVGNPRKTKSAFKGDSGGPLLCAGVAQGIVSYGRIDAKPPRVFTRISHYRPWINQILQAN — assign fB Cleavage, 80% plasma EC50 category
Resp: middle segment

Req: Lab log: chymase C22S/K40L/F41K/L99H/F173Y/D175S/S218I/A226R (enzyme) IIGGTESKPHSRPYMAYLEIVTSNGPSLKCGGFLIRRNFVLTAAHCAGRSITVTLGAHNITEEEDTWQKLEVIKQFRHPKYNTSTHHHDIMLLKLKEKASLTLAVGTLPFPSQFNFVPPGRMCRVAGWGRTGVLKPGSDTLQEVKLRLMDPQACSHYRSFDHNLQLCVGNPRKTKSAFKGDSGGPLLCAGVAQGIVSYGRIDAKPPRVFTRISHYRPWINQILQAN — assign fB Cleavage, 80% plasma EC50 category
Resp: lower segment
